Plant response rating (0 to 100), Sunflower reference
# Tested on: common (oilseed) sunflower
# PROTOCOL DETAILS: Test C pre-/postemergence test
# Assay type: in vivo, Helianthus annuus
# TEST CONTEXT: Preemergence, 250 g ai/ha

Use the examples below as a reference point.
- MOLECULE: "Cn1nc(C(F)(F)F)c(C[S+]([O-])c2cccc[n+]2[O-])c1Cl (centres unmarked)"
  REPORTED RESULT: 100
- MOLECULE: "Cn1nc(C(F)(F)F)c(CS(=O)(=O)c2cccc[n+]2[O-])c1OC(F)F"
  REPORTED RESULT: 80
- MOLECULE: "Cn1nc(C(F)(F)F)c(CS(=O)(=O)c2ccc(Cl)c[n+]2[O-])c1OC(F)F"
  REPORTED RESULT: 0
- MOLECULE: "Cn1nc(C(F)(F)F)c(C(Cl)S(=O)(=O)c2cccc[n+]2[O-])c1Cl (centres unmarked)"
  REPORTED RESULT: 20

Q. GET /values?readout=Plant response rating (0 to 100), Sunflower&item= CC(c1c(C(F)(F)F)nn(C)c1OC(F)F)S(=O)(=O)c1cccc[n+]1[O-] (centres unmarked)
A. 85

----------
# Test system: annual bluegrass
# PROTOCOL DETAILS: Test D preemergence test
# Assay type: in vivo, Poa annua
# TEST CONTEXT: 62 g ai/ha, scale 0 to 100
Param label: returns t when Plant response rating, Bluegrass < 80, returns f otherwise, including exact equality.

Worked examples, 4 compounds total:
- COMPOUND: "Cn1nc(C(F)(F)F)c(CS(=O)(=O)c2cccc[n+]2[O-])c1OC(F)F [Compound 4]"
  SYSTEM NAME: "annual bluegrass"
  LABEL CLASS: "t"
- COMPOUND: "Cn1nc(C(F)(F)F)c(CS(=O)(=O)c2ccc(Cl)c[n+]2[O-])c1OC(F)F [Compound 7]"
  SYSTEM NAME: "annual bluegrass"
  LABEL CLASS: "t"
- COMPOUND: "Cc1cc[n+]([O-])c([S+]([O-])Cc2c(C(F)(F)F)nn(C)c2OC(F)F)c1 (centres unmarked) [Compound 1]"
  SYSTEM NAME: "annual bluegrass"
  LABEL CLASS: "t"
- COMPOUND: "Cn1nc(C(F)(F)F)c(C(Cl)S(=O)(=O)c2cccc[n+]2[O-])c1Cl (centres unmarked) [Compound 12]"
  SYSTEM NAME: "annual bluegrass"
  LABEL CLASS: "f"

Q. Please indicate whether the reported Plant response rating, Bluegrass of Cc1cc[n+]([O-])c(S(=O)(=O)Cc2c(C(F)(F)F)nn(C)c2OC(F)F)c1 [Compound 2] is strictly below 80.
A. t

----------
# Test system: field bindweed
# PROTOCOL DETAILS: Test F preemergence test
# Type: in vivo, Convolvulus arvensis
# TEST CONTEXT: 16 g ai/ha, preemergence; scale 0 to 100
Plant response rating, Field Bindweed reference
The answer should be written as a number, with no unit following it.

Use the examples below as a reference point.
- COMPOUND: "Cn1nc(C(F)(F)C(F)(F)F)c(C[S+]([O-])c2cccc[n+]2[O-])c1OCC(F)(F)F (centres unmarked) [Compound 79]"
  Plant response rating, Field Bindweed: 60
- COMPOUND: "CCn1nc(C(F)(F)F)c(CS(=O)(=O)c2cccc[n+]2[O-])c1OCC(F)(F)F [Compound 63]"
  Plant response rating, Field Bindweed: 0
- COMPOUND: "CC(c1c(C(F)(F)F)nn(C)c1OCC(F)(F)F)S(=O)(=O)c1cccc[n+]1[O-] (racemic) [Compound 33]"
  Plant response rating, Field Bindweed: 0

Q. GET /values?readout=Plant response rating, Field Bindweed&item= CC(Oc1c(C[S+]([O-])c2ccc(Cl)c[n+]2[O-])c(C(F)(F)F)nn1C)C(F)(F)F (centres unmarked) [Compound 87]
A. 0

Q. GET /values?readout=Plant response rating, Field Bindweed&item= Cn1nc(C(F)(F)F)c(C[S+]([O-])c2ccc(F)c[n+]2[O-])c1OCC(F)(F)F (centres unmarked) [Compound 67]
A. 0
